// reported IC50 for each item listed
Test system: H460 (human lung cancer)
ASSAY COMMENT: MTT cytotoxicity assay, H460
Type: cell-based
ASSAY SETUP: Homo sapiens, NCI-H460; H460 cells, 50% cell growth inhibition after 72 h of drug exposure, MTT
Method: The cytotoxic activities of target compounds were evaluated against HT-29 (human colon cancer), MDA-MB-231 (human breast cancer), U87MG (human glioblastoma), H460 (human lung cancer), A549 (non-small-cell lung adenocarcinoma), HL-60 (human leukemic) cancer cell lines and one normal cell line WI-38 (human fetal lung fibroblasts) together with references DHA and cisplatin by a MTT assay. […]
Expressed in µM, but write only the number.

MOLECULE	UOM	REPORTED RESULT
Cc1ccccc1NS(=O)(=O)/C=C/c1ccc(OCCOC2O[C@@H]3O[C@@]4(C)CC[C@H]5[C@H](C)CC[C@@H]([C@H]2C)[C@@]35OO4)cc1 (some centres unmarked)	µM	1.58
C[C@@H]1CC[C@H]2[C@@H](C)C(OCCNC(=O)c3ccc(COc4ccc(/C=C/S(=O)(=O)Nc5ccc(OC(F)(F)F)cc5)cc4)cc3)O[C@@H]3O[C@@]4(C)CC[C@@H]1[C@]32OO4 (some centres unmarked)	µM	2.7
C[C@@H]1CC[C@H]2[C@@H](C)C(OCCNC(=O)c3ccc(COc4ccc(/C=C/S(=O)(=O)Nc5ccccc5Cl)cc4)cc3)O[C@@H]3O[C@@]4(C)CC[C@@H]1[C@]32OO4 (some centres unmarked)	µM	0.89

Ask: Report IC50 under test system H460 (human lung cancer) for Cc1ccccc1NS(=O)(=O)/C=C/c1ccc(OCc2ccc(C(=O)NCCOC3O[C@@H]4O[C@@]5(C)CC[C@H]6[C@H](C)CC[C@@H]([C@H]3C)[C@@]46OO5)cc2)cc1 (some centres unmarked) .
Result: 1.92

Ask: Report IC50 under test system H460 (human lung cancer) for C[C@@H]1CC[C@H]2[C@@H](C)C(OCCOc3ccc(/C=C/S(=O)(=O)Nc4cccc(Cl)c4)cc3)O[C@@H]3O[C@@]4(C)CC[C@@H]1[C@]32OO4 (some centres unmarked) .
Result: 7.32

* * *

// reported melting point for each item listed

These solved cases illustrate the format of a correct answer.
MOLECULE	melting point
C[C@@H]1CC[C@H]2[C@@H](C)C(OCCNC(=O)c3ccc(COc4ccc(/C=C/S(=O)(=O)Nc5cccc(Cl)c5)cc4)cc3)O[C@@H]3O[C@@]4(C)CC[C@@H]1[C@]32OO4 (stereo partly shown) [Compound 6b]	146 to 149 °C
C[C@@H]1CC[C@H]2[C@@H](C)C(OCCOc3ccc(/C=C/S(=O)(=O)Nc4ccc(Cl)cc4)cc3)O[C@@H]3O[C@@]4(C)CC[C@@H]1[C@]32OO4 (stereo partly shown) [Compound 3f]	138 to 141 °C
C[C@@H]1CC[C@H]2[C@@H](C)C(OCCOc3ccc(/C=C/S(=O)(=O)Nc4cccc(Cl)c4)cc3)O[C@@H]3O[C@@]4(C)CC[C@@H]1[C@]32OO4 (stereo partly shown) [Compound 3b]	137 to 138 °C
C[C@@H]1CC[C@H]2[C@@H](C)C(OCCOc3ccc(/C=C/S(=O)(=O)Nc4c(Cl)cccc4Cl)cc3)O[C@@H]3O[C@@]4(C)CC[C@@H]1[C@]32OO4 (stereo partly shown) [Compound 3h]	144 to 146 °C
C[C@@H]1CC[C@H]2[C@@H](C)C(OCCNC(=O)c3ccc(COc4ccc(/C=C/S(=O)(=O)Nc5ccccc5)cc4)cc3)O[C@@H]3O[C@@]4(C)CC[C@@H]1[C@]32OO4 (stereo partly shown) [Compound 6a]	142 to 145 °C

Ask: Note melting point for the molecule shown: C[C@@H]1CC[C@H]2[C@@H](C)C(OCCNC(=O)c3ccc(COc4ccc(/C=C/S(=O)(=O)Nc5ccc(Cl)cc5)cc4)cc3)O[C@@H]3O[C@@]4(C)CC[C@@H]1[C@]32OO4 (stereo partly shown) [Compound 6f]
Result: 138 to 141 °C

Ask: Note melting point for the molecule shown: COc1cccc(NS(=O)(=O)/C=C/c2ccc(OCc3ccc(C(=O)NCCOC4O[C@@H]5O[C@@]6(C)CC[C@H]7[C@H](C)CC[C@@H]([C@H]4C)[C@@]57OO6)cc3)cc2)c1 (stereo partly shown) [Compound 6i]
Result: 144 to 145 °C

The reported measurements were obtained from paper PMC6270595.
